z-score by entry:
# procedure-summary: inhibitors of hydroxyurea-induced Chk1 phosphorylation, primary screen, imaging, HeLa, phospho-Chk1 antibody, percent positive cells (AID 1186)
# condition-info: hydroxyurea-induced phospho-Chk1 immunofluorescence imaging, higher = more signal
// return a plain number; no unit text

compound	z-score
COCCOC(=O)N1C(=O)[C@@]2(c3ccccc31)[C@H](c1ccc(OCCO)cc1)N1[C@H](c3ccccc3)[C@H](c3ccccc3)OC(=O)[C@H]1[C@@H]2C(=O)N1CCCCCCC1	-0.17
COCCCNC(=O)[C@@H]1c2ccccc2C(=O)N(C2Cc3ccccc3C2)[C@H]1c1ccc(CO)cc1	-0.533
COC(=O)C1N=C(c2ccc(OCCCO)cc2)N(c2ccccc2)O1 (stereo not drawn)	-0.729
O=C1O[C@H](c2ccccc2)[C@H](c2ccccc2)N2[C@H]1[C@@H](C(=O)Nc1nc3ccccc3s1)[C@]1(C(=O)Nc3ccc(C#CC4=CCCCC4)cc31)[C@H]2c1ccc(O)cc1	-0.433
CCCCC(=C=CC[C@H](O)c1ccc(OCCO)cc1)C[C@H](O)COCc1ccccc1	-0.122

// next item, z-score requested
Return z-score (reported value) for this compound: CCC(CC)C(O)C1C=CC2C(=O)N(c3ccccc3)C(=O)C2N1Nc1ccc([N+](=O)[O-])cc1 (stereo not drawn)
-0.37

###

# Tested on: Human papillomavirus type 1a E7 protein (residues 1-88)
# procedure-summary: HPV1a E7 small-molecule binders, primary screen, biochemical, small-molecule microarray, residues 1-88, 635 nm (AID 1129)
# condition-info: small-molecule microarray binding, fluorescence 635 nm; higher = more signal
assay-metric: composite z-score
Provide a numeric answer; units are not to be included.

Below, each entry is followed by its recorded composite z-score result.
compound	composite z-score
CCCCCCCCCCC(O)C1C=CC2C(=O)N(c3ccccc3)C(=O)C2N1Nc1ccccc1F (stereo not given)	0.399
COC(=O)[C@@]1(Cc2ccc(F)cc2)[C@H]2c3cc(C(=O)N(C)C)n(Cc4ccc(O)c(OC)c4)c3C[C@H]2CN1C(=O)c1ccccc1	0.575
[N-]=[N+]=NCc1ccccc1[C@H]1OC(c2ccc(OCCCO)cc2)=N[C@@]1(CCS(=O)(=O)c1ccccc1)C(=O)NCc1ccccc1	1.2
COc1ccc(CCNC(=O)[C@@]2(Cc3ccccc3I)c3ccccc3C(=O)N(Cc3ccccc3Cl)[C@H]2c2ccc(CO)cc2)cc1	0.899
C=C(C(=O)CC[C@H](OC(=O)c1ccccc1-c1ccccc1C(=O)O)c1ccccc1OCCO)C(C)C	0.909
CO[C@H]1O[C@H](CO)[C@@H](OC(=O)Nc2ccc(C#N)cc2)[C@@H]2OC(=O)[C@H](Cc3cccc(Br)c3)C/C=C/C[C@@H](Cc3cccc(Br)c3)C(=O)O[C@@H]12	0.776
CC1CC/C=C\[C@H]2OC34C=CCN(C(C)(C)C)C(=O)[C@H]3N(C(CO)C(C)C)C(=O)[C@@H]4C2C(=O)O1 (stereo not given in full)	-0.181
COc1cc(NN2C(C(O)C3CCCCC3)C=CC3C(=O)N(C)C(=O)C32)cc(OC)c1OC (stereo not given)	1.23

Specify composite z-score for `COCCOC(=O)N1C(=O)[C@@]2(c3cc(C#CC4(O)CCCCCC4)ccc31)[C@H](c1ccc(OCCO)cc1)N1[C@H](c3ccccc3)[C@H](c3ccccc3)OC(=O)[C@H]1[C@@H]2C(=O)Nc1nc2ccccc2s1` and stop.
1.13

Supply recorded composite z-score for `CO[C@H]1O[C@H](CO)[C@@H](OC(=O)CCc2ccccc2)[C@H](OC(=O)c2cc3ccccc3[nH]2)[C@H]1OC(=O)c1cc2ccccc2[nH]1` here.
1.01

###

# test-system: Calmodulin-1 (Homo sapiens)
# procedure-summary: calcium-bound CALM1 binders on microarrays, profiling panel, artefact control for SMM control-protein annotation, biochemical, small-molecule microarray, Cy5-labelled CALM1, plus calcium (AID 1112);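 also: score merges spot fluorescence with signal to noise from triplicate slides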
# condition-info: Cy5-CALM1 binding fluorescence, higher = more signal
Kind request: treat 0.1 as inclusive, so composite z-score at 0.1 or higher is label 1, anything lower is label 0.

Worked set:
molecule	class-label
COCCOC(=O)N1C(=O)[C@@]2(c3cc(C#CC4=CCCCC4)ccc31)[C@H](c1ccc(O)cc1)N1[C@H](c3ccccc3)[C@H](c3ccccc3)OC(=O)[C@H]1[C@@H]2C(=O)NC[C@H](O)c1ccccc1	label 1
NCCCCCNC(=O)[C@@H]1C[C@@H]2C(=O)N3CCC[C@H]3C(=O)N2[C@@H]1c1ccc(O)cc1	label 1
O=c1cccc(-c2ccc(F)cc2)o1	label 0
C=CCNC(=O)[C@H]1[C@@H]2C(=O)O[C@@H](c3ccccc3)[C@@H](c3ccccc3)N2[C@@H](c2ccc(OCCO)cc2)[C@]12C(=O)N(C(=O)OCCOC)c1ccc(C#Cc3ccc(OC)cc3)cc12	label 1

Now consider a different compound.
Determine whether measured composite z-score meets or exceeds 0.1 for `CCCNC(=O)[C@@]1(C)c2ccccc2C(=O)N(Cc2ccccc2)[C@H]1c1ccc(CO)cc1`
label 0

###

# procedure-summary: RPMI8226 myeloma cell viability, profiling panel, resazurin fluorescence, basal, 24 h, PK04 Diversity Set (AID 1180);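 also: RPMI8826 multiple myeloma cell line at 5000 cells per well; test concentration not given here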
# condition-info: higher = more signal
// reported z-score per item
Lab note: jot the number down without any unit.

For the molecule `CCCCC=C[C@@H](NC(=O)c1ccccc1)c1ccccc1` , report z-score.
-0.321

# return recorded z-score for entry `C=C(CCCC)C(=O)CC[C@@H](OC(=O)c1cccnc1)c1ccc(OCCO)cc1`
-2.52

Quote z-score reported for `COc1ccc(C#Cc2ccc3c(c2)[C@]2(C(=O)N3)[C@H](C(=O)Nc3nc4ccccc4s3)[C@H]3C(=O)O[C@H](c4ccccc4)[C@H](c4ccccc4)N3[C@@H]2c2ccccc2OCCO)cc1` please.
1.5

Look up z-score of `Cc1ccc(N2C(=O)c3ccccc3[C@](C)(C(=O)NCc3ccccc3)[C@@H]2c2ccc(CO)cc2)nc1` and report it.
0.994

###

# test-system: Pro-neuregulin-1, membrane-bound isoform (Homo sapiens) (UniProt Q02297)
# Sequence (Q02297 whole entry, looked up, canonical isoform): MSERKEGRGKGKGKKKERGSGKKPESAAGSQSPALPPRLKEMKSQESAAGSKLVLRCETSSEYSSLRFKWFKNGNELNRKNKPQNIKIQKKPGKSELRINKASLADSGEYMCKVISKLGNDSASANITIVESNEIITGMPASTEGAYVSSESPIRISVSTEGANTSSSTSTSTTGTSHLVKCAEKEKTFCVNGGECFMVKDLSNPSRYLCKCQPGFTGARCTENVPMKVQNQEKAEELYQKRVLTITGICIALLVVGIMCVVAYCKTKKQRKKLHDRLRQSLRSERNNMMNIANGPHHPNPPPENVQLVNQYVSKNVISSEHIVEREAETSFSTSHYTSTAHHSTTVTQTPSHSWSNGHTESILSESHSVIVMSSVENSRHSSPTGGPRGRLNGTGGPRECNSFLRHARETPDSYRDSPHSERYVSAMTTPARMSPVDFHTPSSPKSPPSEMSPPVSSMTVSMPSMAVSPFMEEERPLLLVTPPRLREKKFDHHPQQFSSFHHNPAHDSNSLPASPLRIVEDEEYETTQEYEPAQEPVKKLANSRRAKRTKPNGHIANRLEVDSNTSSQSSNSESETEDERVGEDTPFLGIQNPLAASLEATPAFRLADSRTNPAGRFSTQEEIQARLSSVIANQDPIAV
# procedure-summary: NRG1 binders on small-molecule microarrays, primary screen, psychiatric disease protein project, biochemical, small-molecule microarray, fluorescence 635/667 (AID 1075);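 also: score combines 667 nm spot fluorescence with signal to noise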
# condition-info: NRG1 binding, 635 nm fluorescence, higher = more signal
assay-metric: composite z-score

A selection of reference data follows.
compound	composite z-score
C=C(COC)C(=O)CC[C@@H](OC(=O)c1cccnc1)c1ccccc1OCCO	0.754
C=C(COC)/C(=C/C[C@@H](OC(=O)c1ccncc1)c1ccccc1OCCO)c1cc(C(=O)OC)ccc1OC	-0.33
C=C[C@@H](C)[C@H](O)c1ccc(OCCO)cc1	-0.0655
CC(C)[C@H]1NC(=O)[C@@]23C(=O)N[C@@H](Cc4ccccc4)C2[C@H](C)[C@@]2(C)O[C@H]2C3/C=C/C/C=C\CNC(=O)[C@H](Cc2ccccc2)NC1=O (stereo partly drawn)	0.781
C=C(CCCC)C(=O)CC[C@H](OC(=O)c1ccccc1-c1ccccc1C(=O)O)c1ccccc1OCCO	1.06

Assign composite z-score to the following record: COCC1C2CC[C@H]3C(OCc4ccc(OC)cc4)OC[C@]4(C)[C@H]3C2=C(CN4C(=O)OC(C)(C)C)[C@H](C)C1COC (stereo partly drawn)
1.73

Recall and state the measured composite z-score for `COc1ccc([Si](C)(C)[C@H]2[C@H](CCO)O[C@@]3(C(=O)N(Cc4ccccc4)c4ccc(N5CCOC5=O)cc43)[C@@H]2C)cc1` .
0.872

Supply reported composite z-score belonging to this compound: `C=C(COC)/C(=C/C[C@@H](OC(C)=O)c1ccc(CO)o1)c1cc(C(=O)OC)ccc1OC`
1.46

Return the recorded composite z-score value; entry: C=CCC(OC(C)=O)[C@@H]1[C@@H](N(Cc2ccc(-c3ccccc3)cc2)C(=O)c2ccc(C)cc2)c2cc(OCCCO)ccc2N1C(=O)Cc1ccc2ccccc2c1 (stereo partly drawn)
-0.283

###

Recorded z-score, one value per entry.
# procedure-summary: A549 cell viability effects, profiling panel, calcein-AM fluorescence, 48 h, basal (AID 1162); also: test concentration not given here
# condition-info: higher = more signal
Give only the figure.

> print(dat)
                                   compound  assay.metric  measured.result
1  CCCCCCCCCCC(O)C1C=CC2C(=O)N(c3ccccc3)C(=O)C2N1Nc1ccccc1F (configuration not stated)       z-score            0.059
2  NC(=O)N1C(=O)C2C(C1=O)C1C=C(CCCO)C2C(C2CC2)N1Cc1cccc(OC(F)(F)F)c1 (configuration not stated)       z-score           -0.307
3  C=CCN1C(=O)[C@]2(O[C@H](CCO)[C@@H]([Si](C)(C)c3ccc(OC)cc3)[C@@H]2C)c2cc(N3C(=O)COc4ccccc43)ccc21       z-score            -3.84

Please examine the following record next.
Tell us which z-score value is on record for `COC(=O)c1c2oc(c1C(=O)OC)C(=O)N1CCC[C@H]1Cn1nncc1CN(Cc1ccccc1)C(=O)N[C@H](CO)CC2`
-0.0989
